The reported measurements were obtained from PubChem BioAssay (NCI).

The following compounds are shown together with reported growth values.
# Tested on: DU-145 prostate
# test-protocol: NCI-60 one-dose screen, 48 h (100 = growth as untreated, 0 = no growth, -100 = all killed)
# setup-conditions: 10 µM unless noted
Compounds without any hit were thinned out: in the full panel of roughly 83,000, 20% have a hit. Activity calls are given as the source filed them. The calls were made as follows: active = growth percent below 10; inactive = the rest.

N[C@H]1CN(C(=O)c2cc3cc(Br)c(F)c(F)c3[nH]2)C[C@@H]1O | 112% (inactive)

QUERY: Could you tell me which growth is on file for C=C1C(=O)O[C@H]2[C@H]1CC/C(Cn1cc(CNC(=O)c3cc4ccccc4[nH]3)nn1)=C\CC[C@@]1(C)O[C@@H]21 ?
RESULT: 52.2% (inactive)

QUERY: Could you tell me which growth is on file for CCO/C=N/C1=C(C#N)C(c2ccc(Cl)cc2)c2c(c3ccc(C)cc3[nH]c2=O)O1 (centres undefined) ?
RESULT: 103% (inactive)

QUERY: Could you tell me which growth is on file for COc1ccncc1S(=O)(=O)NC(=O)Nc1ccc(Cl)c(Cl)c1 ?
RESULT: 109% (inactive)

---

# Test system: NCI-H322M lung
# test-protocol: NCI-60 one-dose screen, 48 h
# setup-conditions: 10 µM unless noted
Compounds without any hit were thinned out: in the full panel of roughly 83,000, 20% have a hit. Activity calls are given as the source filed them. Rule for the calls: active = growth percent below 10; inactive = the rest.
The reply should be one of these categories: YES (active), NO (inactive)

CN(CCCCCl)P(=O)(OCc1ccc([N+](=O)[O-])o1)C(F)(F)C[C@H](NC(=O)CNC(=O)c1ccc(N=[N+]=[N-])cc1)C(=O)NCCc1ccc(O)cc1 (stereo not given in full) | NO

QUERY: Fill in: this test's call for Brc1cccc(-c2cc(-c3ccc4nccnc4c3)[nH]n2)c1 is ___
RESULT: NO

QUERY: Fill in: this test's call for COc1ccc(-c2ccc(C)n2-c2ccc(-c3nc4ccccc4s3)cc2)cc1 is ___
RESULT: NO

QUERY: Fill in: this test's call for O=S(=O)(CC(O)(c1ccccc1)c1ccccc1)CC(O)(c1ccccc1)c1ccccc1 is ___
RESULT: NO

---

# Tested on: NCI-H522 lung
# test-protocol: NCI-60 one-dose screen, 48 h
# setup-conditions: 10 µM unless noted
About 83,000 compounds went through this panel and 20% of them were active in at least one assay; those are over-represented in the sample as a whole. Activity calls are given as the source filed them. How the source made its calls: active means growth percent below 10; inactive means the rest.
The reply should be one of these categories: active, inactive

CC(=O)Oc1csc(N(C(C)=O)c2cc(C(=O)O)cc(C(=O)O)c2)n1 | inactive
O=C1Nc2ccc3c(c2/C1=C\c1cc2c(cc1Br)OCO2)OCO3 | inactive
CC(C)(C)n1cc(-c2ccnc(NCCCNS(=O)(=O)c3ccc(F)cc3)c2)c(-c2cccc(O)c2)n1 | inactive
COc1ccc2c(c1)cn1c3ccc(OC)cc3[nH]c(=O)c21 | active
CN(C)c1nc2c(N)ncnc2n1C1OC(CO)C(O)C1O (stereo not given) | inactive
COc1ccc(/C=C2\Oc3cc(OCCCN4CCCC4)ccc3C2=O)cc1 | inactive
C=C[C@@H]1C[C@H](O)Cc2cc(F)ccc2N1 | inactive
COc1cc(NC(N)=NCCC(C)(C)c2ccc(C(F)(F)F)cc2)ncc1C#N | inactive

QUERY: Fill in: this test's call for CCN(CC)c1ccc(CNc2ccnc3ccccc23)cc1 is ___
RESULT: inactive

QUERY: Fill in: this test's call for O=C(Nc1cccc(-n2cc(-c3ccncc3)c(-c3ccc(Cl)c(O)c3)n2)c1)Nc1cc(C(F)(F)F)cc(C(F)(F)F)c1 is ___
RESULT: active

QUERY: Fill in: this test's call for O=C(c1c[nH]c(=O)c(-c2ccccc2)c1)c1ccccc1O is ___
RESULT: inactive

---

# Test system: NCI-H460 lung
# test-protocol: NCI-60 one-dose screen, 48 h
# setup-conditions: 10 µM unless noted
# Procedure: Growth inhibition of the NCI-H460 human Non-Small Cell Lung tumor cell line is measured as a screen for anti-cancer activity. Cells are grown in 96 well plates and exposed to the test compound for 48 hours. Compounds are tested at a single concentration, which is 10^-5 M for most compounds. The reported endpoint is percent growth (GI% or GIPRCNT), where numbers from 0 - 100% represent growth inhibition, and numbers from -100% - 0 represent cell death. […]
This is part of a sample that, as a whole, favours compounds with a hit. Of some 83,000 tested, about 20% had one in any assay. Activity calls are given as the source filed them. Rule for the calls: active = growth percent below 10; inactive = the rest.
The reply should be one of these categories: YES = active, NO = inactive

The examples below pair each entry with its known result.
O=C1/C(=C/c2ccc(Cl)cc2)CN(Cc2cn(CCNc3ccnc4cc(Cl)ccc34)nn2)C/C1=C\c1ccc(Cl)cc1 | YES
Nc1cccc(-c2nc3sccn3c2-c2ccnc(NCCNS(=O)(=O)c3ccc(C(F)(F)F)cc3)n2)c1 | NO
C/C=C(\C)C(C(=O)NC1CCCCC1)N(C(=O)C1CCc2cc(F)ccc2O1)c1ccc(Cl)cc1 (stereo not drawn) | NO
CCCCCCCC[C@@H](O)CC(=O)N[C@@H](CC(N)=O)C(=O)N[C@@H](CCC(N)=O)C(=O)N[C@@H](CC(=O)c1cc(C)cc(O)c1C(=O)c1c(O)cccc1O)CC(C)C | NO
O=C(O)COc1ccc(-c2cssc2=S)cc1 | NO
CC1=NC2=CC=CC3=NC(C(Cl)(Cl)Cl)=NC(=N1)N23 | NO
COc1ccc(C(=O)N2NC(=O)/C(=C/c3cn(-c4ccccc4)nc3-c3ccccc3)N=C2c2ccccc2)cc1 | NO

We now examine a further molecule.
QUERY: Fill in: this test's call for N#Cc1ccc(N2Cc3ccccc3OC3=C2C(=O)c2c(O)ccc(O)c2C3=O)cc1 is ___
RESULT: NO

---

# Test system: DU-145 prostate
# test-protocol: NCI-60 one-dose screen, 48 h
# setup-conditions: 10 µM unless noted
# Experimental: Cells are grown in 96 well plates and exposed to the test compound for 48 hours. Compounds are tested at a single concentration, which is 10^-5 M for most compounds. The reported endpoint is percent growth (GI% or GIPRCNT), where numbers from 0 - 100% represent growth inhibition, and numbers from -100% - 0 represent cell death. For example, a value of 40 represents 60% growth inhibition. A value of 0 means no net growth occurred over the course of the experiment. […]
Compounds without any hit were thinned out: in the full panel of roughly 83,000, 20% have a hit. Active and inactive are the calls of the source. The calls were made as follows: active = growth percent below 10; inactive = the rest.
The reply should be one of these categories: 1 = active, -1 = inactive

Cc1nc2c3c(ncn2n1)Oc1c(c(=O)[nH]c2ccccc12)C3c1ccc(Cl)cc1 (configuration not stated) | -1

We now examine a further compound.
QUERY: Fill in: this test's call for Cc1cc(N)n(S(=O)(=O)c2oc(-c3ccccc3)nc2C#N)n1 is ___
RESULT: -1

---

The following compounds are shown together with reported growth values.
# Tested on: ACHN renal
# test-protocol: NCI-60 one-dose screen, 48 h (100 = growth as untreated, 0 = no growth, -100 = all killed)
# setup-conditions: 10 µM unless noted
# Procedure: Growth inhibition of the ACHN human tumor cell line is measured as a screen for anti-cancer activity. Cells are grown in 96 well plates and exposed to the test compound for 48 hours. Compounds are tested at a single concentration, which is 10^-5 M for most compounds. The reported endpoint is percent growth (GI% or GIPRCNT), where numbers from 0 - 100% represent growth inhibition, and numbers from -100% - 0 represent cell death. For example, a value of 40 represents 60% growth inhibition. […]
About 83,000 compounds went through this panel and 20% of them were active in at least one assay; those are over-represented in the sample as a whole.
Report only the number, with the unit % understood.

Known growth results, listed for orientation:
COc1ccc(-c2cnoc2-c2ccc(OC)cc2O)cc1 | 57.4
Cc1cc(N/N=C/c2nc(-c3ccccc3)oc2C)c2cc(Br)ccc2n1 | 89.9
CCN(CC)c1ccc2[nH]c3c(C(N)=O)cc(=O)c(=O)c=3oc2c1 | -8.77

QUERY: Could you tell me which growth is on file for COc1ccc(-c2ccc(C)n2-c2ccc(-c3nc4cc(Cl)ccc4s3)cc2)cc1 ?
RESULT: 108

QUERY: Could you tell me which growth is on file for COc1ccc(Nc2ncccc2C(=O)NCc2cn(Cc3cccc(Oc4ccccc4)c3)nn2)c(OC)c1 ?
RESULT: 48

QUERY: Could you tell me which growth is on file for Fc1ccc(Nc2ncnc3ccc(-c4cnc5[nH]ccc5c4)cc23)cc1Cl ?
RESULT: -66.7

QUERY: Could you tell me which growth is on file for CCCCN(CCCC)c1ccc(C(=N)c2ccc(N(CCCC)CCCC)cc2)cc1 ?
RESULT: -100

QUERY: Could you tell me which growth is on file for N=c1ccc2nc3ccc(N)cc3sc-2c1 ?
RESULT: 55.2

QUERY: Could you tell me which growth is on file for CC1(C)C(=O)/C(=C\c2ccc(C(F)(F)F)cc2)C[C@]2(C)[C@H]3CC[C@@H]4[C@H]5[C@H](C(=O)/C=C/c6ccc(C(F)(F)F)cc6)CC[C@]5(CO)CC[C@@]4(C)[C@]3(C)CC[C@@H]12 ?
RESULT: 91.9

QUERY: Could you tell me which growth is on file for CCNc1nc(S(=O)(=O)CC)nc2ccccc12 ?
RESULT: 86.1

QUERY: Could you tell me which growth is on file for CCN(CC)CCC(CNc1ccnc2cc(Cl)ccc12)c1ccc(Cl)cc1 (stereo not given) ?
RESULT: -74.5

QUERY: Could you tell me which growth is on file for CC12CCC3C4(C)COC(c5ccco5)OC4CCC3(C)C1CC(C1=CCOC1=O)O2 (stereo not given) ?
RESULT: 102
